system: MS2 coat protein; assay: apparent Kd, MS2 coat protein; higher = weaker binding; RNA-MaP array; FMN 200 µM where present; settings: ligand present: flavin mononucleotide; designed as: OFF switch for flavin mononucleotide
Recorded apparent Kd values for a group of sequences are listed next.
Hi, when you answer, please include the unit after the number. Thanks!

Previously resolved entries follow.
Ask: Please state recorded apparent Kd (tested on MS2 coat protein) of UUUUUACAUGAGGAUCACCCAUGUCAGGAUAUGGUUAUAUUUUAUUAUUUUAUUUUUUCCAGAAGGGACUAUUA
Reply: 162 nM

Ask: Please state recorded apparent Kd (tested on MS2 coat protein) of GUAAUUACGAGAGGAUAUUGACAUGAGGAUCACCCAUGUAUUUGGGAGUGUUCACUGAAUUCUUACGAGAAGGCUCGUAAAUAC
Reply: 214 nM

Ask: Please state recorded apparent Kd (tested on MS2 coat protein) of CUCAUGUUAGGAUAUGCGCUCAACGUAGUGGUCGAGCUCUAGCAGAAGGAACAUGAGGAUCACCCAUGUUUGCA
Reply: 26.8 nM

New cases:
Ask: Please state recorded apparent Kd (tested on MS2 coat protein) of GGGUCGUCAGGAUAUACAUGAGGAUCACCCAUGUGACCACACUUACCUAUCGCUCGCUGUAGAAGGGAUGAUGA
Reply: 27.1 nM

---

test system: MS2 coat protein; assay: apparent Kd, MS2 coat protein; higher = weaker binding; RNA-MaP array; theophylline 2 mM where present; details: ligand present: theophylline; designed as: ON switch for theophylline
Endpoint: apparent Kd (nM)
Response body: numeric value in nM, unit text excluded.

Previously resolved entries follow.
Ask: # query: apparent Kd of entry UGUUUGGUGCGCGAGUGUUGGAUAAAUGAUACCAGUGUAGAUGUACGCCCUUGGCAGCGUAUCCGAACAUGAGGAUCACCCAUGU
Reply: 67.2

Ask: # query: apparent Kd of entry AAAAUAAAUAAAACACGUAACAUGAAGGAUACCAGACCGGAAACGGUCCCUUGGCAGCCUCUACAUGAGGAUCACCCAUGUCGUG
Reply: 30.9

Ask: # query: apparent Kd of entry AUCGUACCUGAUGAUACCAGCAAUUGCUCGUAACAUGAGGAUCACCCAUGUGAUCAGUGAUGCCCUUGGCAGCAUGAUCGGUGCA
Reply: 35.4

New cases:
Ask: # query: apparent Kd of entry GGUGAUCCGUAUCACCGGAUCAUCGGUGAUACCAGCAUCGAAAGAUGCCCUUGGCAGCACCAACAUGAGGAUCACCCAUGUAAUA
Reply: 25.9

---

system: MS2 coat protein; assay: apparent Kd, MS2 coat protein; higher = weaker binding; RNA-MaP array; FMN 200 µM where present; settings: ligand present: flavin mononucleotide; designed as: ON switch for flavin mononucleotide
Recorded apparent Kd values for a group of sequences are listed next.
Hi, when you answer, please include the unit after the number. Thanks!

Previously resolved entries follow.
Ask: # query: apparent Kd of entry AAACACGGACAUGAGGAUCACCCAUGUGGCGAAAGCCUAACUAGAAGGCAGUAUGCAAAGCAUUCUGAGGAUAUGGGUUCCGUG
Reply: 18.1 nM

Ask: # query: apparent Kd of entry GUAGCAUACAGAGGAUAUUCAAACGACAAAAGUCGACAUGAGGAUCACCCAUGUGGCGAAAGCCGGGAGAAGGCUGAAUGCUAC
Reply: 12 nM

Ask: # query: apparent Kd of entry GUAGGGAUUACAUGAGGAUCACCCAUGUCAGAACGGGUAAUCAGAAGGUAUUAUUAGGGAGAGGGUAAGGAUAUGAUUUUUUAU
Reply: 344 nM

Would you kindly look at the next entry?
Ask: # query: apparent Kd of entry AAAAAACAUGAGGAUCACCCAUGUCAAAAGACAUGAGGAUAUGUACAGACUUCGGUCUGUACAGAAGGCAUGAAAA
Reply: 43.6 nM

The values you see were collected from the EternaBench riboswitch data.
